# protocol.description: self-splicing fitness, log relative to wild type (ln ratio); higher = more splicing; Tetrahymena group I intron in knt gene, E. coli kanamycin selection, DiMSum; sequences stand for … in CUCUCU…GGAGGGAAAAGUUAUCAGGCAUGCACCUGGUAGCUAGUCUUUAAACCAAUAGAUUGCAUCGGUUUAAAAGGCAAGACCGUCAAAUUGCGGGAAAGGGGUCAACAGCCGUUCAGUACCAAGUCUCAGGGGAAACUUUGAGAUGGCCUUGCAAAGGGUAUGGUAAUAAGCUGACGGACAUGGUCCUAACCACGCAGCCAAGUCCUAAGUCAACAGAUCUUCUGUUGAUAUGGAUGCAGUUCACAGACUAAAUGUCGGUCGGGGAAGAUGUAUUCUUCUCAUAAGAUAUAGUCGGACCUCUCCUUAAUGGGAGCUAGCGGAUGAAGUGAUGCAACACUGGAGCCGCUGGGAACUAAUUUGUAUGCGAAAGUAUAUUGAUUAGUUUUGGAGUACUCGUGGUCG;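 also: selection with 25 µg/mL kanamycin versus none on LB agar overnight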
# protocol.conditions: 37 °C
measured.attribute: self-splicing fitness (ln)
Give the value as a plain number.

UUUUAGCAAUAUUACGGCCC: -1.14

Enquiry: For the sequence `CUCCAGCAAUAUUACGGUCG` , what self-splicing fitness (ln) is on record?
Return: -0.679

Enquiry: Now the same for `CCGCAGCAAUAUUACGUAUC`
Return: -1.91

Enquiry: Now the same for `GUCUAGCAAUAUUACGGAUA`
Return: -0.0363

Enquiry: Now the same for `CGUAAGCAAUAUUACGUCAC`
Return: -2.59

Enquiry: Now the same for `CAUGAGCAAUAUUACGAUCA`
Return: -2.24

Enquiry: Now the same for `UCCUAGCAAUAUUACGAUGU`
Return: -0.553

---

# protocol.description: self-splicing fitness, log relative to wild type (ln ratio); higher = more splicing; Tetrahymena group I intron in knt gene, E. coli kanamycin selection, DiMSum; sequences stand for … in CUCUCU…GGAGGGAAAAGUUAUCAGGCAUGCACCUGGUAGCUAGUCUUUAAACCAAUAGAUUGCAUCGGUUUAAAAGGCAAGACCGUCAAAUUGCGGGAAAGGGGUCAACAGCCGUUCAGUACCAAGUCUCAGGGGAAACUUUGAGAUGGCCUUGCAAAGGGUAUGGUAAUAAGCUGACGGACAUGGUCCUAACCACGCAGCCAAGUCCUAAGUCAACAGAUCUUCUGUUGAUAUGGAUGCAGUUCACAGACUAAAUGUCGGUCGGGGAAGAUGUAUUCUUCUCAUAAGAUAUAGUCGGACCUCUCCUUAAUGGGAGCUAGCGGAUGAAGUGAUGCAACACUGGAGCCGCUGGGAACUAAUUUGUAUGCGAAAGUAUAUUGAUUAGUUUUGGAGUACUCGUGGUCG
# protocol.conditions: 30 °C
Known self-splicing fitness (ln) of a selection of sequences

Example cases with answers are listed next.
AACAAGCAAUAUUACGGUGA: -0.546
GGCCAGCAAUAUUACGUCCU: -1.47

Enquiry: For the sequence `GGGUAGCAAUAUUACGGAUG` , what self-splicing fitness (ln) is on record?
Return: -1.19

Enquiry: Now the same for `UAACAGCAAUAUUACGAACA`
Return: -0.546

Enquiry: Now the same for `UCGGAGCAAUAUUACGCACA`
Return: -2.26

Enquiry: Now the same for `CGUUAGCAAUAUUACGGUGU`
Return: -3.37

Enquiry: Now the same for `GACUAGCAAUAUUACGUUUA`
Return: -1.05

Enquiry: Now the same for `GCCCAGCAAUAUUACGCAAG`
Return: -2.79

---

# protocol.description: self-splicing fitness, log relative to wild type (ln ratio); higher = more splicing; Tetrahymena group I intron in knt gene, E. coli kanamycin selection, DiMSum; sequences stand for … in CUCUCU…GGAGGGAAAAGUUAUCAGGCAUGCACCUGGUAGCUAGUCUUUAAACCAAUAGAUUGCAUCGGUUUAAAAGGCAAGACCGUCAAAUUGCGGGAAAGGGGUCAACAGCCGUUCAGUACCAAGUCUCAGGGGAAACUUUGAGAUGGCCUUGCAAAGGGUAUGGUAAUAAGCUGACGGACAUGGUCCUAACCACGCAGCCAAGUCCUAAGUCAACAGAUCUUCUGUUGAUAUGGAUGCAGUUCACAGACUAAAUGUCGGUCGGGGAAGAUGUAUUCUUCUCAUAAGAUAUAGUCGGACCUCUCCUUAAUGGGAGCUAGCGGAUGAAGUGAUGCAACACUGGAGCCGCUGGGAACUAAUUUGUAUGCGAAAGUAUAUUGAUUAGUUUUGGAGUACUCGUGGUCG
# protocol.conditions: 37 °C
measured.attribute: self-splicing fitness (ln)
Give the value as a plain number.

Example cases with answers are listed next.
UACAAGCAAUAUUACGAGAC: -1.43
UUGAAGCAAUAUUACGCUUU: -2.56
AAUUAGCAAUAUUACGGUGG: -1.96

Enquiry: For the sequence `UACGAGCAAUAUUACGGCCA` , what self-splicing fitness (ln) is on record?
Return: -1.85

---

# protocol.description: self-splicing fitness, log relative to wild type (ln ratio); higher = more splicing; Tetrahymena group I intron in knt gene, E. coli kanamycin selection, DiMSum; sequences stand for … in CUCUCU…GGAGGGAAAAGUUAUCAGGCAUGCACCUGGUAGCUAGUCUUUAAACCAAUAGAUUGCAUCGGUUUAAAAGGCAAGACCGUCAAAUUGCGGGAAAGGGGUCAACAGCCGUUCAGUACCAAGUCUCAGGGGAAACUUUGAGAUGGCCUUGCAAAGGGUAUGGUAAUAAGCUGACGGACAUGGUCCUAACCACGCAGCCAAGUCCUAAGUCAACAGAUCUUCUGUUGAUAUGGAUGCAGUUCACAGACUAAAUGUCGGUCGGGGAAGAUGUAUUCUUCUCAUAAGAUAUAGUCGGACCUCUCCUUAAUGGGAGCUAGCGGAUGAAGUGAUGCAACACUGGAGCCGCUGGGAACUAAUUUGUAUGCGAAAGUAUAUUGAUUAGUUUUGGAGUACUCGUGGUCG
# protocol.conditions: 37 °C
Known self-splicing fitness (ln) of a selection of sequences

GGACAGCAAUAUUACGACAA: -0.0889
GCCCAGCAAUAUUACGACGU: 0.441
AGAAAGCAAUAUUACGCUCG: 0.318
CUCAAGCAAUAUUACGCAAA: -2.47
UCCGAGCAAUAUUACGCGGG: -2.78

Enquiry: For the sequence `UUCCAGCAAUAUUACGGUAA` , what self-splicing fitness (ln) is on record?
Return: -0.0663

Enquiry: Now the same for `AGGAAGCAAUAUUACGACUU`
Return: -0.239

Enquiry: Now the same for `GGUUAGCAAUAUUACGGCCA`
Return: 0.0427

Enquiry: Now the same for `AAUCAGCAAUAUUACGCGCU`
Return: -0.732

---

# protocol.description: self-splicing fitness, log relative to wild type (ln ratio); higher = more splicing; Tetrahymena group I intron in knt gene, E. coli kanamycin selection, DiMSum; sequences stand for … in CUCUCU…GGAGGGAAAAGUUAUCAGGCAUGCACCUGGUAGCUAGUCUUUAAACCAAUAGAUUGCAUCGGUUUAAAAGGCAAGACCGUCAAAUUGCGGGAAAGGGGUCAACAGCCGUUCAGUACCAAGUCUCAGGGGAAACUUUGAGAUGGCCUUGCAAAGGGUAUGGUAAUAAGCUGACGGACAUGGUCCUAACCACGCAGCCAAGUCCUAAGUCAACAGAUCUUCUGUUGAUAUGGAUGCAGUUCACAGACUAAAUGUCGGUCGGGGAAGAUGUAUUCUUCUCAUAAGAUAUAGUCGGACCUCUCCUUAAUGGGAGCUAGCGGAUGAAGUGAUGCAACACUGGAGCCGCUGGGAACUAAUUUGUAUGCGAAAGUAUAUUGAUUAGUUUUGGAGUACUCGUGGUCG
# protocol.conditions: 37 °C
Assign class by self-splicing fitness (ln): not lower than -2 means YES; lower than -2 means NO.

CUGGAGCAAUAUUACGUUCG: YES
AACCAGCAAUAUUACGUUGC: NO
GCCAAGCAAUAUUACGUACC: YES

Enquiry: Please indicate if the recorded self-splicing fitness (ln) for `CGCGAGCAAUAUUACGUUCU` meets or exceeds -2.
Return: NO

Enquiry: Now the same for `ACACAGCAAUAUUACGGAAU`
Return: NO

Enquiry: Now the same for `UAGAAGCAAUAUUACGUUCA`
Return: YES

Enquiry: Now the same for `GUCGAGCAAUAUUACGUGAG`
Return: YES

Enquiry: Now the same for `ACCUAGCAAUAUUACGGUUA`
Return: YES

Enquiry: Now the same for `AACUAGCAAUAUUACGUAAU`
Return: YES

---

# protocol.description: self-splicing fitness, log relative to wild type (ln ratio); higher = more splicing; Tetrahymena group I intron in knt gene, E. coli kanamycin selection, DiMSum; sequences stand for … in CUCUCU…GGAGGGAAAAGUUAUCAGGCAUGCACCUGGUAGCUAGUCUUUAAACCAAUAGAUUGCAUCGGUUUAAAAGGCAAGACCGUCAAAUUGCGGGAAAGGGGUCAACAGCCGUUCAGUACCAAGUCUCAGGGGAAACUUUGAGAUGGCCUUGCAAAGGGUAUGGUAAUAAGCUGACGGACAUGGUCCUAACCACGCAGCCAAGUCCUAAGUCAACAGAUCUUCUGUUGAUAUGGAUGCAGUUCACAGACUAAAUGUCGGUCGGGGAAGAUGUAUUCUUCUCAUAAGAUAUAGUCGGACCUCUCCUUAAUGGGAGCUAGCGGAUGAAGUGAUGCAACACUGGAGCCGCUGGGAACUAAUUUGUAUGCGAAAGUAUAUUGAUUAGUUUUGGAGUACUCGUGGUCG
# protocol.conditions: 37 °C
measured.attribute: self-splicing fitness (ln)
Give the value as a plain number.

Example cases with answers are listed next.
GCAAAGCAAUAUUACGGGUU: -1.67
GGUUAGCAAUAUUACGUUUG: -1.42

Enquiry: For the sequence `CCAGAGCAAUAUUACGCAGU` , what self-splicing fitness (ln) is on record?
Return: -3.42

Enquiry: Now the same for `GAUGAGCAAUAUUACGACGC`
Return: 0.408

Enquiry: Now the same for `AUAAAGCAAUAUUACGAAUA`
Return: -0.302

Enquiry: Now the same for `CUUCAGCAAUAUUACGCUGG`
Return: -2.15

Enquiry: Now the same for `GUUGAGCAAUAUUACGGUAG`
Return: -1.94

Enquiry: Now the same for `UACCAGCAAUAUUACGUGUA`
Return: -1.67

Enquiry: Now the same for `ACUUAGCAAUAUUACGAUUU`
Return: 0.252

Enquiry: Now the same for `GCCAAGCAAUAUUACGUCAU`
Return: -2.59

Enquiry: Now the same for `GAUAAGCAAUAUUACGUGAA`
Return: -1.63

Enquiry: Now the same for `GCCGAGCAAUAUUACGAUAA`
Return: -2.08

Enquiry: Now the same for `UACAAGCAAUAUUACGGUUC`
Return: -1.73

Enquiry: Now the same for `UCCCAGCAAUAUUACGAUAG`
Return: -1.97

Enquiry: Now the same for `AUGCAGCAAUAUUACGGUGC`
Return: -3.02

Enquiry: Now the same for `UUGAAGCAAUAUUACGGCCU`
Return: -0.147
